Below, each entry is listed with its recorded pIC50.
- MEASUREMENT_TARGET: SARS-CoV-2 Papain like protease (PLpro) (Severe acute respiratory syndrome coronavirus 2 (2019-nCoV) (SARS-CoV-2), UniProt P0DTD1)
- METHOD_SUMMARY: Papain Like Protease (PLpro) biochemical assay with profluorogenic substrate Z-RLRGG-AMC
- CONDITION_LABEL: SARS-CoV-2 PLpro 6.25 nM, 25 μM Z-RLRGG-AMC substrate, 60 minute reaction; read-out: IC50
pIC50: −log10 of the molar value.

- MOLECULE: "Cc1ccccc1C(=O)NC(C)c1cc(C2CC(F)(F)C2)nc2ccccc12 (stereo in doubt)"
  RELATION_SIGN: "="
  pIC50: 6.01
- MOLECULE: "Cc1ccccc1C(=O)NC(C)c1cc(N(C)CCC(=O)N(C)C)nc2ccccc12 (stereo not shown)"
  RELATION_SIGN: "="
  pIC50: 5.07
- MOLECULE: "Cc1ccccc1C(=O)NC(C)c1cc(-c2c(C#N)cnn2C)nc2ccccc12 (stereo not shown)"
  RELATION_SIGN: "="
  pIC50: 6.03
- MOLECULE: "CNc1cc([C@@H](C)NC(=O)c2ccccc2C)c2ccccc2n1"
  RELATION_SIGN: "="
  pIC50: 6.00
- MOLECULE: "Cc1ccc(NC(=O)[C@H]2CCCCN2)cc1C(=O)NC(C)c1cc(N)nc2ccccc12 (mixture of isomers)"
  RELATION_SIGN: "="
  pIC50: 7.00
- MOLECULE: "Cc1cc(C(=O)NCc2nccn2C)ccc1C(=O)N[C@H](C)c1cc(-c2cnn(C)c2)nc2ccccc12"
  RELATION_SIGN: "="
  pIC50: 8.30
- MOLECULE: "COC[C@@H](OCc1cocn1)c1ccc(C(=O)NC2(c3cc(-c4cnn(C)c4)cc4ncccc34)CC2)c(C)c1 (single isomer, unassigned)"
  RELATION_SIGN: ">"
  pIC50: 9.00

---

- MEASUREMENT_TARGET: UniProt P0DTD1
- METHOD_SUMMARY: Papain Like Protease (PLpro) biochemical assay with profluorogenic substrate Z-RLRGG-AMC
- CONDITION_LABEL: SARS-CoV-2 PLpro 6.25 nM, 25 μM Z-RLRGG-AMC substrate, 60 minute reaction; read-out: IC50

- MOLECULE: "Cc1cc(C(=O)NC(C)(C)c2ncc[nH]2)ccc1C(=O)N[C@H](C)c1cc(-c2cnn(C)c2)nc2ccccc12"
  IC50: "167 nM"
- MOLECULE: "COCC(OCc1cscn1)c1ccc(C(=O)NC2(c3cc(-c4cnn(C)c4)nc4ccccc34)CC2)c(C)c1 (single isomer, unassigned) [Example 324]"
  IC50: "< 1 nM"
- MOLECULE: "Cc1ccccc1C(=O)NC(C)c1cc(NCCS(=O)(=O)N(C)C)nc2ccccc12 (stereo not drawn)"
  IC50: "1770 nM"
- MOLECULE: "Cc1cc(CNCc2cscn2)ccc1C(=O)N[C@H](C)c1cc(-c2cnn(C)c2)nc2ccccc12"
  IC50: "8 nM"
- MOLECULE: "Cc1ccccc1C(=O)NC(C)c1cc(-c2cnn(C)n2)nc2ccccc12 (stereo not drawn)"
  IC50: "855 nM"
- MOLECULE: "Cc1cc(C(C)NC(=O)c2cscn2)ccc1C(=O)N[C@H](C)c1cc(-c2cnn(C)c2)nc2ccccc12 (stereo partly drawn)"
  IC50: "41 nM"
- MOLECULE: "Cc1ccccc1C(=O)NC(C)c1cc(NCC2CCN(S(C)(=O)=O)CC2)nc2ccccc12 (stereo not drawn)"
  IC50: "1070 nM"
- MOLECULE: "Cc1ccc(N2CCN(C)CC2)cc1C(=O)NC1(c2cc(-c3cc(C(=O)N(C)C)c[nH]3)cc3ccccc23)CC1"
  IC50: "2 nM"
- MOLECULE: "Cc1ccccc1C(=O)NC(C)c1cc(-c2cnn3cccnc23)nc2ccccc12 (stereo not drawn)"
  IC50: "2910 nM"
- MOLECULE: "Cc1ccccc1C(=O)NC(C)c1cc(-c2scc3c2OCCO3)nc2ccccc12 (stereo not drawn)"
  IC50: "10000 nM"
- MOLECULE: "COC[C@@H](OCc1cocn1)c1ccc(C(=O)NC2(c3cc(-c4cnn(C)c4)cc4nc(C)ccc34)CC2)c(C)c1 (single isomer, unassigned)"
  IC50: "< 1 nM"
- MOLECULE: "Cc1ccccc1C(=O)NC(C)c1cc(NCc2cnco2)nc2ccccc12 (stereo not drawn)"
  IC50: "675 nM"
- MOLECULE: "Cc1ccc(CNS(C)(=O)=O)cc1C(=O)N[C@H](C)c1cc(-c2cnn(C)c2)nc2ccccc12"
  IC50: "46 nM"
- MOLECULE: "COCC(OCc1cscn1)c1ccc(C(=O)NC2(c3cc(-c4cnn(C)c4)nc4ccccc34)CC2)c(C)c1 (single isomer, unassigned) [Example 325]"
  IC50: "1 nM"
- MOLECULE: "Cc1cc(C[S+]([O-])Cc2nccn2C)ccc1C(=O)N[C@H](C)c1cc(-c2cnn(C)c2)nc2ccccc12 (stereo partly drawn)"
  IC50: "5 nM"
- MOLECULE: "Cc1cc(COCc2cocn2)ccc1C(=O)NC1(c2cc(-c3cnn(C)c3)cc3ncccc23)CC1"
  IC50: "< 1 nM"
- MOLECULE: "COC[C@@H](OCc1cscn1)c1ccc(C(=O)NC2(c3cc(-c4cnn(C)c4)cc4ncccc34)CC2)c(C)c1 (single isomer, unassigned)"
  IC50: "< 1 nM"
- MOLECULE: "Cc1ccccc1C(=O)N[C@H](C)c1cc(OCC2COC2)nc2ccccc12"
  IC50: "3970 nM"
- MOLECULE: "Cc1ccc(NC(=O)[C@H]2CCCCN2)cc1C(=O)NC(C)c1cc(-c2cnn(C)c2)cc2ccccc12 (stereo partly drawn)"
  IC50: "23 nM"
- MOLECULE: "Cc1ccccc1C(=O)NC(C)c1cc(-c2cnn(CC3(C#N)CC3)c2)nc2ccccc12 (stereo not drawn)"
  IC50: "329 nM"
- MOLECULE: "Cc1ccc(CN)cc1C(=O)N[C@H](C)c1cc(-c2cn[nH]c2)nc2ccccc12"
  IC50: "27 nM"
- MOLECULE: "Cc1ccc(N2CCNCC2=O)cc1C(=O)N[C@H](C)c1cc(-c2cnn(C)c2)nc2ccccc12"
  IC50: "390 nM"
- MOLECULE: "Cc1ccccc1C(=O)N[C@H](C)c1cc(N(C)C)nc2ccccc12"
  IC50: "2170 nM"
- MOLECULE: "Cc1ccc(CN)cc1C(=O)N[C@H](C)c1cc(-c2cc(C(N)=O)c[nH]2)nc2ccccc12"
  IC50: "16 nM"
- MOLECULE: "Cc1ccc(N2CC3CN(C)CC3C2)cc1C(=O)N[C@H](C)c1cc(-c2cnn(C)c2)nc2ccccc12 (stereo partly drawn)"
  IC50: "8 nM"
- MOLECULE: "Cc1ccc2c(C3(NC(=O)c4ccc(COCc5cocn5)cc4C)CC3)cc(-c3cnn(C)c3)cc2n1"
  IC50: "< 1 nM"
- MOLECULE: "Cc1ccc(N2CCNCC2)cc1C(=O)N[C@H](C)c1cc(-c2cnn(C)c2)nc2ccccc12"
  IC50: "18 nM"
- MOLECULE: "Cc1cc(COCc2cscn2)ccc1C(=O)NC1(c2cc(-c3cc(C(=O)N(C)C)n[nH]3)nc3ccccc23)CC1"
  IC50: "< 1 nM"
- MOLECULE: "C[C@@H](NC(=O)c1ccccc1CCC(=O)NNC(=O)[C@H]1O[C@@H]1C(=O)O)c1cc(-c2cnn(C)c2)nc2ccccc12"
  IC50: "1 nM"
- MOLECULE: "Cc1cc(CNCc2ncc[nH]2)ccc1C(=O)NC(C)c1cc(-c2cnn(C)c2)cc2ccccc12 (stereo not drawn)"
  IC50: "19 nM"
